src = patent US9233107B2

System: JCV strain Mad1/SVEΔ
Assay: microbe, parasite or virus in culture
Type: cell-based, JC polyomavirus (JCV)
Details: JC polyomavirus, Glial cell, read-out: % Inhibition (total #JCV+) @10 uM
Structures can show the parent of a compound that is named as a salt.
PARAMETER: inhibition at 10 µM
Respond with the figure and its unit, in that order.

Example molecules with recorded inhibition at 10 µM:
[
  {
    "MOLECULE": "CCCCOc1cc(CC2CNC(=O)N2)ccc1OC (stereo not drawn)",
    "inhibition at 10 µM": "48%"
  },
  {
    "MOLECULE": "CC(=O)OCC(=O)[C@@]12OC3(CCCC3)O[C@@H]1C[C@H]1[C@@H]3CCC4=CC(=O)C=C[C@]4(C)[C@@]3(F)[C@@H](O)C[C@@]12C [AMCINONIDE]",
    "inhibition at 10 µM": "16%"
  },
  {
    "MOLECULE": "COC(=O)c1c(C)c2c(c(C)c1O)OC(=O)c1c(C)c(Cl)c(O)c(Cl)c1O2",
    "inhibition at 10 µM": "14%"
  },
  {
    "MOLECULE": "O=c1oc2ccccc2c(O)c1Cc1c(O)c2ccccc2oc1=O",
    "inhibition at 10 µM": "36%"
  },
  {
    "MOLECULE": "COc1ccc([C@@H]2Sc3ccccc3N(CCN(C)C)C(=O)[C@@H]2OC(C)=O)cc1 [DILTIAZEM HYDROCHLORIDE]",
    "inhibition at 10 µM": "20%"
  },
  {
    "MOLECULE": "Clc1ccc(COC(Cn2ccnc2)c2ccc(Cl)cc2Cl)c(Cl)c1 (stereo not drawn) [MICONAZOLE NITRATE]",
    "inhibition at 10 µM": "46%"
  },
  {
    "MOLECULE": "COc1cc(/C=C/C(=O)N2CCC=CC2=O)cc(OC)c1OC",
    "inhibition at 10 µM": "21%"
  },
  {
    "MOLECULE": "CC/C(=C(/CC)c1ccc(O)cc1)c1ccc(O)cc1",
    "inhibition at 10 µM": "42%"
  }
]

Recall and state the measured inhibition at 10 µM for `O=C(O)c1ccccc1Nc1cccc(C(F)(F)F)c1` . 37%

Recall and state the measured inhibition at 10 µM for `OCCN(CCO)c1nc(N2CCCCC2)c2nc(N(CCO)CCO)nc(N3CCCCC3)c2n1` . 24%

Recall and state the measured inhibition at 10 µM for C=C[C@@H]1C2=CCOC(=O)C2=CO[C@H]1O[C@@H]1O[C@H](CO)[C@@H](O)[C@H](O)[C@H]1O [GENTIOPICROSIDE] . 32%

Recall and state the measured inhibition at 10 µM for COc1ccc(C(=O)c2ccccc2O)c(O)c1 [DIOXYBENZONE, 2,2′-Dihydroxy-4-methoxybenzophenone] . 55%

Recall and state the measured inhibition at 10 µM for `Cc1cccc(Nc2ccccc2C(=O)O)c1C` . 29%

Recall and state the measured inhibition at 10 µM for `COc1cc([C@@H]2c3cc4c(cc3[C@H](O)[C@H]3COC(=O)[C@@H]23)OCO4)cc(OC)c1OC` . 19%

Recall and state the measured inhibition at 10 µM for `Cc1nccc2c1[nH]c1ccccc12` . 24%

Recall and state the measured inhibition at 10 µM for `CCC(=O)Nc1ccc(Cl)c(Cl)c1` . 12%

Recall and state the measured inhibition at 10 µM for `Cc1c(Nc2ncccc2C(=O)O)cccc1C(F)(F)F` . 30%

Recall and state the measured inhibition at 10 µM for `O=c1cc(-c2ccccc2)oc2cc(O)cc(O)c12` . 18%
